- experiment-notes: Acute toxicity in the mouse (LD50, Probits method)
- measurement-parameters: in vivo, ip, intraperitoneal route, male
- Description: The study has been performed using whitish Swiss mice weighing about 20 g and Wistar rats, in the phase of weight increase, weighing about 150 g, of both sexes. The product has been administered to fasted animals (2 hours for mice and 18 hours for rats) by gastric tube (oral route) or intraperitoneal injection. Sulfipyrazone has been used as reference drug. […]
Kindly state LD50 at 192 h for each of the entries shown.
Give the number; mg/kg is assumed, so skip it.

Look up LD50 at 192 h of O=C(OCC1(CC[S+]([O-])c2ccccc2)C(=O)N(c2ccccc2)N(c2ccccc2)C1=O)c1cccnc1 (centres unmarked) and report it.
3130

Look up LD50 at 192 h of O=C1C(CC[S+]([O-])c2ccccc2)C(=O)N(c2ccccc2)N1c1ccccc1 (centres unmarked) and report it.
163

###

- experiment-notes: Acute toxicity in the rat (LD50, Probits method)
- measurement-parameters: in vivo, ip, intraperitoneal route, male
readout-name: LD50 at 192 h (mg/kg)
Give the number; mg/kg is assumed, so skip it.

Look up LD50 at 192 h of O=C(OCC1(CC[S+]([O-])c2ccccc2)C(=O)N(c2ccccc2)N(c2ccccc2)C1=O)c1cccnc1 (centres unmarked) and report it.
2690

Look up LD50 at 192 h of O=C1C(CC[S+]([O-])c2ccccc2)C(=O)N(c2ccccc2)N1c1ccccc1 (centres unmarked) and report it.
149

###

- experiment-notes: Acute toxicity in the rat (LD50, Probits method)
- measurement-parameters: in vivo, ip, intraperitoneal route, female
- Experimental: The study has been performed using whitish Swiss mice weighing about 20 g and Wistar rats, in the phase of weight increase, weighing about 150 g, of both sexes. The product has been administered to fasted animals (2 hours for mice and 18 hours for rats) by gastric tube (oral route) or intraperitoneal injection. Sulfipyrazone has been used as reference drug. […]
readout-name: LD50 at 192 h
For clarity, give the value followed by its unit.

Look up LD50 at 192 h of O=C(OCC1(CC[S+]([O-])c2ccccc2)C(=O)N(c2ccccc2)N(c2ccccc2)C1=O)c1cccnc1 (centres unmarked) [VQG 582] and report it.
2320 mg/kg

Look up LD50 at 192 h of O=C1C(CC[S+]([O-])c2ccccc2)C(=O)N(c2ccccc2)N1c1ccccc1 (centres unmarked) [sulfinpyrazone] and report it.
157 mg/kg
